Test: recombinant UMI read abundance after kanamycin selection (control-corrected) (log10(CPM+1)); higher = more efficient recombination; extreme values may be limits of the assay; sequences stand for … in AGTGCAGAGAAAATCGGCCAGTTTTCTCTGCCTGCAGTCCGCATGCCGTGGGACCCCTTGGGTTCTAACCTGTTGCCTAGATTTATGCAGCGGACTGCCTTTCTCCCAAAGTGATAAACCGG…AGGTTGGTTTCACT; site = the 11-nt donor;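 further: IS621 bridge recombinase in Escherichia coli cells against a fixed T5 target plasmid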
Classification field. Basis: recombinant UMI read abundance (log10). Definitions: low = under 0.005, middle = from 0.005 up to 0.2, high = 0.2 and over

// bin(item) where item = TCAGAGACATGGACCGGTTTTCCCGGTAATCCGTATTTGGG (site TCAGAGACTCG) low

// bin(item) where item = AGCCTAGCATGGACCGGTTTTCCCGGTAATCCGTATTTGAT (site AGCCTAGCTAC) middle

// bin(item) where item = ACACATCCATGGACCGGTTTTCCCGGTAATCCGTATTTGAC (site ACCCATCCTGT) low

// bin(item) where item = TTATGTACATGGACCGGTTTTCCCGGTAATCCGTATTTGGG (site TTATGTACTCC) middle

// bin(item) where item = CTAATATCATGGACCGGTTTTCCCGGTAATCCGTATTTGAG (site CTAGTATCTGT) low

// bin(item) where item = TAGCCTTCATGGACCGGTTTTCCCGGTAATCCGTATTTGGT (site TAGCCTCCTAC) middle

// bin(item) where item = ACTAGGGCATGGACCGGTTTTCCCGGTAATCCGTATTTGGT (site ACTAGCGCTAC) middle

// bin(item) where item = GGCAATTCATGGACCGGTTTTCCCGGTAATCCGTATTTGAA (site GGCAATCCTTT) middle

// bin(item) where item = CAACATACATGGACCGGTTTTCCCGGTAATCCGTATTTGGG (site CAACATACTCC) high

// bin(item) where item = CAAGTCGCATGGACCGGTTTTCCCGGTAATCCGTATTTGGG (site CAAGTCCCTCC) high

// bin(item) where item = TGGAATACATGGACCGGTTTTCCCGGTAATCCGTATTTGCA (site TAGAATACTTG) high

// bin(item) where item = CGGAAATCATGGACCGGTTTTCCCGGTAATCCGTATTTGCT (site CGGAGATCTAG) high

Where do the numbers come from? From the supplement of paper PMC11208160.
